The origin of these recorded values is paper PMC9482650.

target: LAP2, Q96RT1
Sequence (Q96RT1 other isoform, or with tags, fused parts or gaps): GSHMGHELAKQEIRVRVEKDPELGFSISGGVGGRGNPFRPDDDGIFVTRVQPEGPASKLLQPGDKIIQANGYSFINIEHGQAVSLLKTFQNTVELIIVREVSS
experiment-description: holdup assay
Parameters: key: below the threshold = too weak to quantify, mostly under pKd 3.1 to 4
run-conditions: plain residues with an end cap or a label only (N-terminal biotin on a linker: ado-ado)
measured-endpoint: pKd

DDENIRTSDV [PLEKHA2, Q9HB19]
4.18
QHKTQLQTLI [BPIFA2, Q96DR5]
below the threshold
YYKRPVQEWV [MMP24, Q9Y5R2]
4.51
SAAKVLTSMC [GHRHR, Q02643]
below the threshold
